B1: ZNF511 (parent)
chain: YEHHYHTLHGNVCSFCKRAFPSGH

# Variants of: B1
# test.summary: protein stability index of a GFP-peptide fusion (GPS, HEK-293T) (PSI 1-6); higher = more stable;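 note: lentivirally expressed fusions sorted by FACS into six bins by GFP to DsRed ratio, PSI derived from sequencing read proportions per bin multiplied by bin number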
# measurement.conditions: c terminus: a fixed tail appended
Could you label it Condition met if measured protein stability index is 2 or higher, and Condition not met otherwise?

residues=YEHHYHTLHGNVCRFCKRAFPSGH assigned_label="Condition met"

Check if protein stability index >= 2 (inclusive). Item: YEHHYHTLHGNVCSFCKRAFESGH
Condition met

Check if protein stability index >= 2 (inclusive). Item: YEHHYHTLHGNVCSFCKRAYPSGH
Condition met

Check if protein stability index >= 2 (inclusive). Item: YEHHYHTLHGNVCSFCKRAPPSGH
Condition met

Check if protein stability index >= 2 (inclusive). Item: YEHHYHTLHGNVCSFCCRAFPSGH
Condition not met

Check if protein stability index >= 2 (inclusive). Item: YEHHYHTLHGNVCSFCKRASPSGH
Condition met

Check if protein stability index >= 2 (inclusive). Item: YEHHYHTLHGNVCTFCKRAFPSGH
Condition met

Check if protein stability index >= 2 (inclusive). Item: AEHHYHTLHGNVCSFCKRAFPSGH
Condition met

Check if protein stability index >= 2 (inclusive). Item: YEHHYHTLHGNVCSFCKRHFPSGH
Condition met

Check if protein stability index >= 2 (inclusive). Item: YEHHYHTLHGNVCSFCKRAFPSFH
Condition not met

Check if protein stability index >= 2 (inclusive). Item: YEHHYHTLHGNVCSFCKRAMPSGH
Condition met

These entries and their values trace back to the supplement of paper PMC10567573.
